Quick list: GI50 per entry.
- Test system: OVCAR-5
- methodDescription: NCI tumour cell line growth inhibition, 48 h
Active and inactive are the calls of the source. No stated cut-off is given here; in the data, active = GI50 up to about 1.1 µM and inactive = higher.

Known GI50 results, listed for orientation:
- molecule: "COc1c2c(cc3c1-c1c(cc4c(c1OC)OCO4)C1OC3C(C)C1C)OCO2.COc1cc2c(c(OC)c1OC)-c1c(cc3c(c1OC)OCO3)C1OC2C(C)C1C (stereo not drawn)"
  GI50: "> 100 µM (inactive)"
- molecule: "O=[N+]([O-])c1ccc(S(=O)(=O)Cc2ccccc2)c([N+](=O)[O-])c1"
  GI50: "9.55 µM (inactive)"

Asked: Kindly state the measured GI50 obtained for CC1(C)OC(C[C@]2(C#N)C[C@H](CCl)OC(C)(C)O2)C[C@@H](C[C@]2(C#N)C[C@H](CCl)OC(C)(C)O2)O1 (stereo partly drawn) with OVCAR-5.
Given back: > 100 µM (inactive)

---

Quick list: GI50 per entry.
- Tested on: K562
- methodDescription: NCI tumour cell line growth inhibition, 48 h
Active and inactive are the calls of the source. No stated cut-off is given here; in the data, active = GI50 up to about 1.1 µM and inactive = higher.

Known GI50 results, listed for orientation:
- molecule: "NC(=O)c1nnn(Cc2cc(Cl)c(C(=O)c3ccc(Cl)cc3)c(Cl)c2)c1N [CARBOXYAMIDOTRIAZOLE]"
  result: "8.05 µM (inactive)"
- molecule: "CS(=O)(=O)ON1C(=O)c2ccc(N)cc2C1=O"
  result: "42.8 µM (inactive)"
- molecule: "CCCC(=O)Nc1ncnc2c1ncn2C1OC2COP(=O)(O)OC2C1OC(=O)CCC (stereo not drawn)"
  result: "> 100 µM (inactive)"
- molecule: "O=Cc1c[nH]c2c(=O)[nH]cnc12"
  result: "> 100 µM (inactive)"
- molecule: "CC(=O)Nc1nc(O)c2nc(C=O)cnc2n1"
  result: "> 100 µM (inactive)"
- molecule: "COc1cc2c(c(OC)c1OC)-c1ccc(=O)c(O)cc1[C@@H](NC(C)=O)CC2 [COLCHICEINE]"
  result: "15.6 µM (inactive)"
- molecule: "COC[C@H](Cc1ccccc1)/N=C/c1ccccc1"
  result: "> 100 µM (inactive)"
- molecule: "CCOC(=O)C(=[N+]=[N-])C(=O)CN1C(=O)c2ccccc2C1=O"
  result: "> 100 µM (inactive)"

Asked: For the molecule Cc1c2c(cc3c1[nH]c1ccccc13)C=NCC2 , what GI50 is on record?
Given back: 6.17 µM (inactive)

Asked: For the molecule S=c1c2ccccc2c(=S)n2n1CC=CC2 , what GI50 is on record?
Given back: > 100 µM (inactive)

Asked: For the molecule CCCCCCCCCC[C@H](O)[C@H](O)CC[C@@H](O)[C@H]1CC[C@@H]([C@H]2CC[C@H](CCCCCCC[C@@H](O)CC3=C[C@H](C)OC3=O)O2)O1 , what GI50 is on record?
Given back: 1.7 µM (inactive)

Asked: For the molecule CC(=O)Oc1ccc2c(c1)O/C(=C\c1ccc(O)cc1)C2=O , what GI50 is on record?
Given back: > 100 µM (inactive)

Asked: For the molecule CC(=O)N1CCOC12N=NC(C)(C)O2 (stereo not drawn) , what GI50 is on record?
Given back: > 100 µM (inactive)

---

Quick list: GI50 per entry.
- Tested on: DMS-273
- methodDescription: NCI tumour cell line growth inhibition, 48 h
Active and inactive are the calls of the source. Rule as the data show it: active = GI50 up to about 1.1 µM and inactive = higher.

Known GI50 results, listed for orientation:
- compound: "O=c1/c(=C/c2ccco2)sc2nc3ccccc3n12"
  assayEndpoint: "GI50"
  result: "86.5 µM (inactive)"
- compound: "CS(=O)(=O)ON1C(=O)c2ccc(N)cc2C1=O"
  assayEndpoint: "GI50"
  result: "> 100 µM (inactive)"
- compound: "COc1ccc(OC)c(NC(=O)C(=O)C(C(=O)c2ccccc2F)C2OC(=O)c3ccccc32)c1 (stereo unspecified)"
  assayEndpoint: "GI50"
  result: "30.6 µM (inactive)"
- compound: "COc1cc2nncc(Sc3cnnc4ccccc34)c2cc1OC"
  assayEndpoint: "GI50"
  result: "29.7 µM (inactive)"
- compound: "COc1ccc(/C=N/N=C(N)N)c(C(=O)O)c1OC"
  assayEndpoint: "GI50"
  result: "> 100 µM (inactive)"

Asked: For the compound CC1(C)C(O)OC(O)C1(C)C (stereo unspecified) , what GI50 is on record?
Given back: 70.5 µM (inactive)

Asked: For the compound C[C@]12CC[C@H](OCCC#N)CC1=CC[C@@H]1C2CC[C@]2(C)/C(=N/OCCC#N)CCC12 (stereo partly specified) , what GI50 is on record?
Given back: 42.2 µM (inactive)

Asked: For the compound COC1OC(C)C2OC(C)(C)OC2C1OC(C)=O (stereo unspecified) , what GI50 is on record?
Given back: > 100 µM (inactive)

Asked: For the compound O=C(c1ccccc1)C(c1ccccc1)C1(O)C(=O)Nc2c(Cl)cc(Cl)cc21 (stereo unspecified) , what GI50 is on record?
Given back: 27.4 µM (inactive)

Asked: For the compound COC(=O)CCSC(=O)Nc1ccccc1Cl , what GI50 is on record?
Given back: > 100 µM (inactive)

Asked: For the compound COc1ccc(S(=O)(=O)N/N=C(\C)CN2C(=O)c3ccccc3C2=O)cc1OC , what GI50 is on record?
Given back: > 100 µM (inactive)

---

- System: DU-145
- methodDescription: NCI tumour cell line growth inhibition, 48 h
Calls of active or inactive are those of the source. No stated cut-off is given here; in the data, active = GI50 up to about 1.1 µM and inactive = higher. Square brackets hold non-standard residues; d marks the D form. Peptide text beside a SMILES is read from it. * marks the point of attachment. ξ: configuration not given here. Propanoyl(3-(4-MeO-Ph)) = COc1ccc(CCC(=O)*)cc1; Thr(3ξ) = CC(O)[C@H](N)C(=O)O; dNMeL = CN[C@H](CC(C)C)C(=O)O; ξLac = CC(O)C(=O)O
Quick list: GI50 per entry.

Known GI50 results, listed for orientation:
- compound: "COC(=O)C1CC2(CCC1=O)Cc1ccccc1C2=O (stereo not given)"
  GI50: "> 100 µM (inactive)"
- compound: "CCOC(=O)Nc1[nH]cc(-c2ccccc2)c1C#N"
  GI50: "> 100 µM (inactive)"
- compound: "OC(C/C(=N\\N1CCCCC1)c1cccs1)(C(F)(F)F)C(F)(F)F"
  GI50: "> 10 µM (inactive)"

Asked: Kindly state the measured GI50 obtained for N#CCCC1(CCC#N)CCCCCCCCC(CCC#N)(CCC#N)C(=O)C1=O with DU-145.
Given back: > 100 µM (inactive)

Asked: Kindly state the measured GI50 obtained for CN(C)c1ccc(/C=C(\NC(=O)c2ccccc2)C(=O)NCC(=O)O)cc1 with DU-145.
Given back: > 100 µM (inactive)

Asked: Kindly state the measured GI50 obtained for O=C(CCc1cc(O)ccc1O)OCCc1ccccc1 with DU-145.
Given back: 19.9 µM (inactive)

Asked: Kindly state the measured GI50 obtained for N#Cc1c(-c2ccc(Cl)cc2)cc(-c2ccc(Nc3ccnc4cc(C(F)(F)F)ccc34)cc2)[nH]c1=O with DU-145.
Given back: 22.9 µM (inactive)

Asked: Kindly state the measured GI50 obtained for COC(=O)[C@@H](NC(=O)[C@@H](CC(C)C)N(C)C(=O)[C@@H]1CCCN1C(=O)C(C)O)C(C)OC(=O)CCc1ccc(OC)cc1 (stereo not given in full) (H-[ξLac]P[dNMeL][Thr(3ξ)](Propanoyl(3-(4-MeO-Ph)))-OMe) with DU-145.
Given back: > 100 µM (inactive)

Asked: Kindly state the measured GI50 obtained for CC1CN=C(N(Cc2ccccc2)C(=O)Nc2ccc(Cl)c(Cl)c2)S1 (stereo not given) with DU-145.
Given back: 42.7 µM (inactive)

Asked: Kindly state the measured GI50 obtained for COc1cc(Br)c(OC)c2c(OC)cc(C)cc12 with DU-145.
Given back: > 100 µM (inactive)

Asked: Kindly state the measured GI50 obtained for O=C(Nc1ccccc1C(=O)Nc1nccs1)c1ccccc1 with DU-145.
Given back: 13.6 µM (inactive)

Asked: Kindly state the measured GI50 obtained for N#C/C(=C\NC(=S)c1ccncc1)c1nc2ccccc2s1 with DU-145.
Given back: > 100 µM (inactive)

Asked: Kindly state the measured GI50 obtained for Cc1ccc2nc(-c3ccc(-n4c(C)nc(=O)c(-c5ccc(F)cc5)c4C)cc3)sc2c1 with DU-145.
Given back: 15.9 µM (inactive)

Asked: Kindly state the measured GI50 obtained for CCCCC/C=C\C=C\CCCCCCCCC(=O)OC with DU-145.
Given back: > 100 µM (inactive)

Asked: Kindly state the measured GI50 obtained for Oc1cccnc1CN1CCCCC1 with DU-145.
Given back: > 100 µM (inactive)

---

- Tested on: DMS-114
- methodDescription: NCI tumour cell line growth inhibition, 48 h
Active and inactive are the calls of the source. No stated cut-off is given here; in the data, active = GI50 up to about 1.1 µM and inactive = higher.
Entry note: the call must match one of yes (1) for active, no (0) for inactive

// below: answered molecules
- molecule: "Nc1[nH]cnc2ncnc1-2 [ADENINE]"
  assignedClass: "no (0)"
- molecule: "Cc1ccc(C(=O)O)cc1NC(=O)c1cc(/C=C/c2ccccc2)[nH]c(=S)n1"
  assignedClass: "no (0)"
- molecule: "N=C(N)Nc1ncccc1[N+](=O)[O-]"
  assignedClass: "no (0)"
- molecule: "O=C1OCCC1C(O)C1c2ccccc2-c2ccccc21 (configuration not stated)"
  assignedClass: "no (0)"
- molecule: "O=C(O)/C=C\\C(=O)Nc1ccc(S(=O)(=O)c2ccc(NC(=O)/C=C\\C(=O)O)cc2)cc1"
  assignedClass: "no (0)"

Asked: Tell me the recorded outcome of this test for O=C(c1ccccc1)C(c1ccccc1)C1(O)C(=O)Nc2c(Cl)cc(Cl)cc21 (configuration not stated) .
Given back: no (0)

Asked: Tell me the recorded outcome of this test for CCC1(OC(C)=O)C(=O)OCc2c1cc1n(c2=O)Cc2cc3ccccc3nc2-1 (configuration not stated) .
Given back: yes (1)

Asked: Tell me the recorded outcome of this test for COC1(C)C(=O)N2C1N(C(=O)OCc1ccccc1)CC2(C)C (configuration not stated) .
Given back: no (0)

Asked: Tell me the recorded outcome of this test for COCCOCC(=O)N(CCn1ccc(NC(c2ccccc2)(c2ccccc2)c2ccccc2)nc1=O)CCn1cnc2nc(N)[nH]c(=O)c21 .
Given back: no (0)

Asked: Tell me the recorded outcome of this test for O=C1C(=Cc2cccs2)C(=O)N(CCc2ccccc2)S(=O)(=O)N1CCc1ccccc1 .
Given back: no (0)

Asked: Tell me the recorded outcome of this test for CC(=O)OC[C@@H]1[C@H]2CC(=O)O[C@H]2C[C@H]1OC(C)=O .
Given back: no (0)

Asked: Tell me the recorded outcome of this test for CCOC(=O)C1S/C(=N\C(=N)N[N+](=O)[O-])N=C1C (configuration not stated) .
Given back: no (0)

Asked: Tell me the recorded outcome of this test for CN(CCO)c1nc(=O)c2c(n1C1OC(CO)C(O)C(O)C1O)CCCC2 (configuration not stated) .
Given back: no (0)

Asked: Tell me the recorded outcome of this test for NC(=O)c1nnn(Cc2cc(Cl)c(C(=O)c3ccc(Cl)cc3)c(Cl)c2)c1N [CARBOXYAMIDOTRIAZOLE] .
Given back: no (0)
